Test system: Wnt5a (protein binding on small-molecule microarray)
Assay explanation: Wnt5a binders on small-molecule microarray, primary screen, biophysical, 635/667 nm fluorescence (AID 1142);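 note: fluorescence read at 667 nm with signal to noise per printed feature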
Stated conditions: 635 nm fluorescence, higher = more signal
Reported composite z-score by item:
Give only the figure.

{"columns": ["Test smiles", "composite z-score"],
 "data": [
  ["Oc1ccc2cc[n+](Cc3sc4ccccc4c3Cl)cc2c1", -0.127],
  ["CN(C)CCCC[C@@H]1NC(=O)[C@H]2C[C@@H](C(=O)NCCCCCCN)[C@@H](c3ccc(O)cc3)N2C1=O", 0.538]
]}

Quick one: composite z-score of `COC(=O)[C@@]1(Cc2ccc(OC)cc2)[C@H]2c3cc(C(=O)N4CCCC4)n(CCN4CNCC4=O)c3C[C@H]2CN1C(=O)c1ccccc1` ? 2.12

Quick one: composite z-score of `CCCC[C@H]1OB(O)C[C@H]2C1=C(COC)C[C@H]1C(=O)N(C)C(=O)[C@H]12` ? 0.277

----------
Assay explanation: small-molecule binders of probe aInhba, primary screen, biochemical, small-molecule microarray, 635/667 nm fluorescence (AID 1148);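 note: score merges 667nm spot fluorescence with signal-to-noise for antibody binding to printed compounds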
Stated conditions: higher = more signal
Reported composite z-score by item:
Give only the figure.

{"columns": ["Molecule", "composite z-score"],
 "data": [
  ["O=C1N(Cc2ccccc2)c2ccccc2[C@@H]2OC(c3ccc(OCCCO)cc3)=N[C@]12CCS(=O)(=O)c1ccccc1", -0.0719],
  ["CCCC[C@@H]1C[C@H]1[C@@H](NC(=O)c1cccs1)c1ccc(-c2ccccc2)cc1", 0.0541],
  ["O=C1c2ccccc2[C@](Cc2ccccc2I)(C(=O)NCC(F)(F)F)[C@H](c2ccc(CO)cc2)N1Cc1ccccc1Cl", 0.216],
  ["C=C[C@H](CO[Si](CC)(CC)CC)N(Cc1ccc(OC(C)=O)c(OC)c1)S(=O)(=O)c1ccc(Br)cc1", 0.403],
  ["Oc1ccc2cc[n+](Cc3sc4ccccc4c3Cl)cc2c1", -0.12]
]}

Quick one: composite z-score of `C=CC[C@]1(C(=O)NCc2ccccc2)N=C(c2ccc(OCCCO)cc2)O[C@H]1c1ccccc1N=[N+]=[N-]` ? -0.0468

Quick one: composite z-score of `CCCCCCc1nc(-c2ccc(OC)nc2)cc2c1[Si](C(C)C)(C(C)C)O[C@H]2c1ccccc1` ? 0.136

Quick one: composite z-score of CCCCC(CC)C(O)C1C=CC2C(=O)N(Cc3ccccc3)C(=O)C2N1n1cnnc1 (stereo not drawn) ? -0.166

----------
Assay explanation: binders of probe aHhip on microarray, primary screen, stem cell growth factor project, biochemical, small-molecule microarray, fluorescence 635/667 (AID 1087);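 note: score merges spot fluorescence at 667nm with spot signal to noise ratio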
Stated conditions: higher = more signal
Reported composite z-score by item:
Give only the figure.

These solved cases illustrate the format of a correct answer.
{"columns": ["Compound", "composite z-score"],
 "data": [
  ["CCC(CC)C(O)C1C=CC2C(=O)NC(=O)C2N1Nc1ccc(Cl)cc1Cl (stereo not given)", 0.0749],
  ["CCCCCCc1nc(-c2cc(C)c(OC)c(C)c2)cc2c1[Si](C(C)C)(C(C)C)OC2", 0.35],
  ["C=C[C@H](OC)[C@@H](OC(=O)Nc1ccc(OC)cc1)c1ccc(O)c(F)c1", -0.0994],
  ["O=C1[C@@]23C=C(Br)[C@H](C[C@@H]2CCOC3)[C@@]12CO2", 0.0373]
]}

Now look at this entry.
Quick one: composite z-score of COc1cc(C(O)C2C=CC3C(=O)NC(=O)C3N2Nc2ccccn2)cc(OC)c1OC (stereo not given) ? -0.0618

----------
Tested on: Wnt5a (protein binding on small-molecule microarray)
Assay explanation: Wnt5a binders on small-molecule microarray, primary screen, biophysical, 635/667 nm fluorescence (AID 1142);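 note: fluorescence read at 667 nm with signal to noise per printed feature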
Stated conditions: 635 nm fluorescence, higher = more signal
Readout type: composite z-score
Give only the figure.

These solved cases illustrate the format of a correct answer.
{"columns": ["Molecule", "Study target", "Measurement"],
 "data": [
  ["C=C(/C(=C/C[C@H](OC(C)=O)c1ccccc1OCCO)c1cnc2ccccc2c1)C(C)C", "Wnt5a (protein binding on small-molecule microarray)", 0.025],
  ["C=C(C(=O)CC[C@@H](OC(=O)c1cccnc1)c1ccccc1OCCO)C(C)C", "Wnt5a (protein binding on small-molecule microarray)", -0.0008],
  ["CC(C)C(O)C1C=CC2C(=O)N(c3ccccc3)C(=O)C2N1Nc1ccc([N+](=O)[O-])cc1 (configuration not stated)", "Wnt5a (protein binding on small-molecule microarray)", 0.774],
  ["C=CCC(OC(C)=O)[C@@H]1[C@@H](N(Cc2ccc(-c3ccccc3)cc2)C(=O)Cc2ccc(OC)cc2)c2cc(OCCCO)ccc2N1C(=O)Cc1ccc2ccccc2c1 (some centres not stated)", "Wnt5a (protein binding on small-molecule microarray)", -0.263],
  ["COC(=O)C(CC#Cc1ccc2c(c1)[C@]1(C(=O)N2)[C@H](c2ccc(OCCO)cc2)N2[C@H](c3ccccc3)[C@H](c3ccccc3)OC(=O)[C@H]2[C@@H]1C(=O)Nc1nc2ccccc2s1)C(=O)OC", "Wnt5a (protein binding on small-molecule microarray)", 0.35],
  ["[N-]=[N+]=Nc1ccccc1[C@@H]1OC(c2ccc(OCCCO)cc2)=N[C@]1(CCS(=O)(=O)c1ccccc1)C(N)=O", "Wnt5a (protein binding on small-molecule microarray)", 0.903]
]}

Quick one: composite z-score of COc1cc(Br)cc(C(O)C2C=CC3C(=O)N(C)C(=O)C3N2N2CCCCC2)c1OC (configuration not stated) ? -0.274

----------
Reported composite z-score by item:
Tested on: Noggin (protein binding on small-molecule microarray)
Assay explanation: Noggin binders on small-molecule microarray, primary screen, biochemical, 635/667 nm fluorescence (AID 1095);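 note: score merges 667 nm feature fluorescence with signal to noise over triplicate slides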
Stated conditions: 635 nm fluorescence, higher = more signal
Give only the figure.

These solved cases illustrate the format of a correct answer.
{"columns": ["Compound", "Readout type", "Measurement"],
 "data": [
  ["CCCC[C@@H]1C[C@H]1[C@@H](NC(=O)c1ccco1)c1ccc(-c2ccccc2)cc1", "composite z-score", 0.61],
  ["CCOC(=O)C[C@H]1[C@H](OC(=O)c2cc3ccccc3oc2=O)[C@@H](NC(=O)c2ccccc2)c2cc(OCCCO)ccc2N1C(=O)c1ccc2ccccc2n1", "composite z-score", 0.918],
  ["NC(=O)NCC#Cc1ccc2c(c1)[C@]1(C(=O)N2)[C@H](c2ccc(O)cc2)N2[C@H](c3ccccc3)[C@H](c3ccccc3)OC(=O)[C@H]2[C@@H]1C(=O)O", "composite z-score", -0.581]
]}

Quick one: composite z-score of `COc1ccc([Si](C)(C)[C@H]2[C@H](CCO)O[C@@]3(C(=O)N(Cc4ccc(N(C=O)c5ccccc5)cc4)c4ccccc43)[C@@H]2C)cc1` ? 0.0352

Quick one: composite z-score of `Cc1ccc(S[C@]2(C(=O)NCCCN(C)C)CC(=O)N(Cc3ccccc3C(F)(F)F)[C@@H]2c2ccc(CO)cc2)cc1` ? -0.858

Quick one: composite z-score of C=CCC(OC(C)=O)[C@@H]1[C@@H](N(Cc2cccc3ccccc23)C(=O)c2ccc(-c3ccccc3)cc2)c2cc(OCCCO)ccc2N1C(=O)c1ccc2ccccc2c1 (stereo partly specified) ? 0.251

----------
Assay explanation: A549 cell viability effects, profiling panel, calcein-AM fluorescence, 48 h, basal (AID 1162); note: test concentration not given here
Stated conditions: higher = more signal
Reported z-score by item:
Give only the figure.

These solved cases illustrate the format of a correct answer.
{"columns": ["Compound", "z-score"],
 "data": [
  ["CC1(C)[C@@H]2CC(C(O)C3C=CC4C(=O)N(Cc5ccccc5)C(=O)C4N3n3cnnc3)=C[C@H]1C2 (some centres not stated)", -0.868],
  ["CC(C)C(O)C1C=CC2C(=O)N(c3ccccc3)C(=O)C2N1Nc1ccc([N+](=O)[O-])cc1 (configuration not stated)", -0.821],
  ["CNS(=O)(=O)c1ccc(C)cc1", 0.753],
  ["COCCOC(=O)N1C(=O)[C@@]2(c3cc(C#CCC(C(=O)OC)C(=O)OC)ccc31)[C@H](c1ccccc1OCCO)N1[C@H](c3ccccc3)[C@H](c3ccccc3)OC(=O)[C@H]1[C@@H]2C(=O)NC[C@H](O)c1ccccc1", -0.0256],
  ["CC(=O)NCCCC[C@@H]1NC(=O)[C@@H]2C[C@H](C(=O)NCCCCCNC(=O)CS)[C@H](c3cccc(OCCO)c3)N2C1=O", 0.189],
  ["COC(=O)[C@H](Cc1ccccc1)N[C@@H](/C=C/C1CC1)[C@H](O)Cc1ccccc1", 0.168]
]}

Quick one: z-score of CCN(CC)c1ccc(N2CC=CC34O[C@@H]5C=CCCOC(=O)C5[C@H]3C(=O)N(CCCCCCO)[C@@H]4C2=O)cc1 (some centres not stated) ? 0.75
